Test: Pharmacokinetics and metabolism after iv and po administration
Assay type: in vivo
Conditions: male, C57/BL6, mouse, plasma, iv, 5 mg/kg, 0.08 h after iv 5 mg/kg artemisox 6; read-out: Mean iv circulating concentration
Method: The plasma concentration-time profiles of the parent compounds and metabolites after administration iv and po to male C57/BL6 mice are presented in Figure 2, Figure 3 and Figure 4. Artemiside was quantifiable up to 24 h in all mice dosed iv and up to 7 h po (lower limit of quantitation LLOQ = 1.6 ng/mL or 0.004 μM) (Figure 2). […] For both artemiside and artemisox, the metabolite artemisone was quantifiable up to 3 h in both the po and iv groups (Figure 2 and Figure 3). […]
result type: concentration at 0.08 h (nM)
Numbers only, in nM.

C[C@H]1[C@H](N2CCS(=O)(=O)CC2)O[C@@H]2O[C@@]3(C)CC[C@H]4[C@H](C)CC[C@@H]1[C@@]24OO3 [Artemisone 7, Artemisone] :: 1110

Query compound follows.
Task: Entry under review: C[C@H]1[C@H](N2CC[S+]([O-])CC2)O[C@@H]2O[C@@]3(C)CC[C@H]4[C@H](C)CC[C@@H]1[C@@]24OO3 [Artemisox 6, Artemisox] . Reported concentration at 0.08 h?
Output: 1900
